System: MDA-MB-231
experimentalProtocol: NCI tumour cell line growth inhibition, 48 h
The source made the active and inactive calls. Rule as the data show it: active = GI50 up to about 1.1 µM and inactive = higher.
In this exercise, the only acceptable responses are T = active, F = inactive

Take a look at these entries with their results.
[
  {
    "compound": "O=C1c2cc(O)c(O)cc2O[C@H](c2ccc(O)c(O)c2)[C@H]1O",
    "assignedLabel": "F"
  },
  {
    "compound": "CCOc1cc(C2CC(c3ccc(NS(=O)(=O)c4cc([N+](=O)[O-])ccc4C)cc3)=NN2)ccc1O (centres undefined)",
    "assignedLabel": "F"
  },
  {
    "compound": "C/C(=N\\NC(=S)N1CC2CCC(CC2)C1)c1cccc(C)n1",
    "assignedLabel": "T"
  }
]

Recorded test call requested for C=C1C(=O)OC2C1C(OC(=O)/C(C)=C/C)CC(O)(CCl)C1C(OC(C)=O)C=C(C)C21O (centres undefined)
F

Recorded test call requested for C=C1C[C@]23CC[C@@H]4C(CO)(CO)CC(=O)C[C@]4(C)[C@@H]2CC[C@H]1C3
F

Recorded test call requested for O=C(Cc1ccccc1)NN1C(=O)/C(=C\c2ccccc2O)S/C1=N\c1ccccc1
F

Recorded test call requested for CCC(C)[C@H]1C(=O)N=C(N)N1C(=O)OCc1ccccc1 (some centres undefined)
F

###

Test system: SF-268
experimentalProtocol: NCI tumour cell line growth inhibition, 48 h
Calls of active or inactive are those of the source. Cut-off read from the data, not from the text of the source: active = GI50 up to about 1.1 µM and inactive = higher.
measureName: GI50

Report GI50, nothing else, for this compound: O=C(/C(=C\c1ccc(Cl)cc1)c1ccccc1)c1ccccc1
> 100 µM (inactive)

Report GI50, nothing else, for this compound: C[C@]12C[C@@H](c3ccccc3)Nc3ccccc3N1C(c1ccccc1)=NO2
88.5 µM (inactive)

###

Tested on: SR
experimentalProtocol: NCI tumour cell line growth inhibition, 48 h
Calls of active or inactive are those of the source. Rule as the data show it: active = GI50 up to about 1.1 µM and inactive = higher.
measureName: GI50

[
  {
    "compound": "CC(C)(C)c1cc(C(=O)/C=C/C=C/c2ccccc2)cc(C(C)(C)C)c1O",
    "measureName": "GI50",
    "valueReported": "3.24 µM (inactive)"
  },
  {
    "compound": "FC(F)(F)C1(Cl)C(Cl)(c2ccccc2)C1(Cl)c1ccccc1 (stereo not drawn)",
    "measureName": "GI50",
    "valueReported": "7.08 µM (inactive)"
  }
]

Consider now this further compound.
Given COC(=O)C1Cc2cc3c(cc2C1)CCC3 , report its GI50 on SR.
> 100 µM (inactive)

###

GI50 for assorted compounds
System: ACHN
experimentalProtocol: NCI tumour cell line growth inhibition, 48 h
Calls of active or inactive are those of the source. Rule as the data show it: active = GI50 up to about 1.1 µM and inactive = higher.

[
  {
    "compound": "O=C(C/C=C/c1ccccc1)c1ccccc1",
    "valueReported": "16.6 µM (inactive)"
  },
  {
    "compound": "Cc1nc(Nc2ccc(Cl)cc2Cl)sc1C(=O)Nc1ccccc1",
    "valueReported": "36.1 µM (inactive)"
  },
  {
    "compound": "OC(C#CCN1CCCC1)(c1ccccc1)c1ccccc1Cl (centres undefined)",
    "valueReported": "23.9 µM (inactive)"
  }
]

Report GI50, nothing else, for this compound: COc1cc(-c2cc(-c3ccccc3)nc(-c3c(OC)ccc4c(C)cc(=O)oc34)c2)cc(OC)c1OC
> 100 µM (inactive)

Report GI50, nothing else, for this compound: O=C(O)CSC(CC1(c2ccc(Cl)cc2)NC(=O)CS1)c1ccc(Cl)cc1 (centres undefined)
> 100 µM (inactive)
